Where do the numbers come from? From patent US20250297026A1.

- Target or system: T1, canine CD20 (canine, UniProt Q3C2E2 1-297)
- T1 chain: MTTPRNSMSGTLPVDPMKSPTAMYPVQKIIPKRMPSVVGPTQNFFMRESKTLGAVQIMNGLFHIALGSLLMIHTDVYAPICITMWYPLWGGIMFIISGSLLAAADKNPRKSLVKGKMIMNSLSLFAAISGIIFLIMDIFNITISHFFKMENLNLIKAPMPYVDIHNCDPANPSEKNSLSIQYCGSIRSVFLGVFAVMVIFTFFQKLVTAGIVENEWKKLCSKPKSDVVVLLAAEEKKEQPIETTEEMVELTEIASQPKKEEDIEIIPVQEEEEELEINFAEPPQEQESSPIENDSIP
- Assay summary: cell-based or functional assay
Measure name: CDC EC50 (nM)
Hi! Could you send only the number? It should be in nM, unit omitted.

// sample PMX078 (antibody, V domains shown) VH: EVQLVESGGDLVKPGGSLRLSCVASGLTFSRYHMSWIRQAPGKGLQWVAYISSGGSSTNYAGSVKGRFTVSRDNAKNTLYLQMNSLRAEDTAVYYCTSLDYWGQGTLVTVSS VL: SYVLTQLPSKNVTLKQPAHITCGGDNIGSKSVHWYQQKLGQAPVLIIYYDSRRPTGIPERFSGANSGNTATLTISGALAEDEADYYCQVWDSSDNVFGGGTHLTVL , its CDC EC50 was 9.08

The recorded CDC EC50 for entry PMX071 (antibody, V domains shown) VH: EVHLVESGGDLVKPGGSLRLSCVASGITFNRYYMNWVRQTPGKGLQWVAYIDSGGSPTTYADAVKGRFTISRDNAKNTLYLQMNSLRAEDTAVYYCTSFDYWGQGTLVTVSS VL: SYVLTQLPSKNVTLKQPAHITCGGDNIGSKSVHWYQQKLGQAPILIIYYDTSRPTGIPERFSGANSGNTATLTISGALAEDEADYYCQVWDSSANVFGGGTHLTVL equals 28.9
